test system: HEK-293T; experiment: Incucyte cell viability with HEK293T; type: toxicity, cell-based; settings: human, 12 h, 10 µM, compound concentration 10 uM, replicate number 1, timepoint 12 hours; further: unitless GR value; below 1 slowed growth and below 0 cell loss
Mark yes only for Growth Rate values smaller than 0.5; exact matches and larger values are no.

• CNCCN1CCC(c2cc(CN(C)C(=O)c3cccc(Oc4ccccc4)c3)ccn2)CC1 = no
• O=c1c2cccn2c2ccccc2n1CCCN1CCC(c2ccc(Cl)cc2)CC1 = no
• OCCN1CCN(CCCN2c3ccccc3Sc3ccc(Cl)cc32)CC1 [PERPHENAZINE] = no
• CC(C)c1c(NC(=O)Nc2ccc(Cl)cc2)c(=O)n(-c2ccccc2)n1C = no
• Cc1cc(O)c(-c2ccc([C@@H](C)CN(C)C)cc2)c2c1[nH]c(=O)c1sccc12 = yes
• CN(C(=O)c1ccccc1)c1cc(N(C)c2ccc3c(c2)CCc2ccc(C(=O)NCCN4CCOCC4)cc2C3=O)ccc1F [FM-743] = yes
• CCNC(=O)[C@H]1O[C@@H](n2cnc3c(N)ncnc32)[C@H](O)[C@@H]1O.O = no
• O=C(N[C@@H]1CC[C@@H](c2cccc(F)c2F)CN(CC(F)(F)F)C1=O)N1CCC(n2c(=O)[nH]c3ncccc32)CC1 [TELCAGEPANT] = no
• CCN1C(=CC(C)=O)Sc2ccc(OC)cc21 = yes
• C[C@@H](O[C@H]1OCCN(Cc2n[nH]c(=O)[nH]2)[C@H]1c1ccc(F)cc1)c1cc(C(F)(F)F)cc(C(F)(F)F)c1 [APREPITANT] = no
• CN1CCC(C(=O)c2cccc(NC(=O)c3c(F)cc(F)cc3F)n2)CC1 = no
• Br.CS(=O)(=O)Nc1c(O)ccc2c1CCCC2C1=NCCN1 (configuration not stated) = no
• CSc1nc(NC2CCCC2)c([N+](=O)[O-])c(NC2CCCC2)n1 [GS-39783] = no
• COc1c(C)cc(NC(=O)c2nn(Cc3ccc(F)cc3)c3c2CN(C(=O)c2ccc[nH]2)C[C@]3(C)C(N)=O)cc1C = yes
• C[C@H]1[C@H]2CC[C@H]3[C@@H]4CC=C5C[C@@H](N(C)C)CC[C@]5(C)[C@H]4CC[C@]23CN1C [CONESSINE] = no
• Cl.Cl.OCCOCCN1CCN(C(c2ccccc2)c2ccc(Cl)cc2)CC1 (configuration not stated) [HYDROXYZINE HYDROCHLORIDE] = no
• CCc1ccccc1C(=O)Nc1n[nH]c2c(C)c(F)c(C3C(C#N)=C(C)N(C)C(C)=C3C#N)cc12 [BAY-3827] = yes

###

system: Fibroblast; experiment: Incucyte cell viability with human fibroblast; type: toxicity, cell-based; settings: 18 h, 10 µM, compound concentration 10 uM, replicate number 1, timepoint 18 hours; further: unitless GR value; below 1 slowed growth and below 0 cell loss
Readout Type: Growth Rate

- O=C(O)CCC/C=C\C[C@H]1C(=O)C[C@@H](O)[C@@H]1/C=C/[C@@H](O)CCc1ccccc1: 0.74
- CNC(=O)[C@H]1O[C@@H](n2cnc3c(NCc4cccc(I)c4)ncnc32)[C@H](O)[C@@H]1O: 0.7
- CC(C)c1noc(N2CCC(COc3ccc(-c4ccc(S(C)(=O)=O)cc4)nc3)CC2)n1: 0.53
- Cc1ccc(OCC(O)C(C)NC(C)C)c2c1CCC2.Cl (centres undefined): 0.5
- Br.Br.N=C(N)NCCSC(=N)N: 0.54
- CC(C)c1c(NC(=O)Nc2ccc(Cl)cc2)c(=O)n(-c2ccccc2)n1C: 0.76
- CN(c1ncccc1CNc1ccnc(-c2nc3c(F)c(Cl)ccc3[nH]2)n1)S(C)(=O)=O: 0.27
- Cc1cc(-c2ccc3c(c2)CC[C@H]3N2CC3(CCN(C(=O)Cc4cn5cc(C)sc5n4)CC3)C2)ncn1: 0.37
- CN(C)CCCc1cc(C(=O)Nc2ccc(-c3ccncc3)cc2)ccc1O.Cl.Cl: 0
